Target or system: Recombinant human his-tagged IGF R extracellular domain protein (human) (UniProt P08069)
Test summary: SPR, Ab captured via anti-huIgG Fc, pH 7.4
Parameter: kon. Scope: all listed entries.
Dear colleague, please return just the value in M⁻¹ s⁻¹, with no unit written.

VRDN-02032 (antibody, V domains shown) VH: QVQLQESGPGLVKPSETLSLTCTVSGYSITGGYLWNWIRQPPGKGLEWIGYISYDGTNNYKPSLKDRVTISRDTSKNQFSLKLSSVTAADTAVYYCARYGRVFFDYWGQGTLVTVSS VL: DIVMTQSPLSLPVTPGEPASISCRSSHSIVHSNGNTYLQWYLQKPGQSPQLLIYKVSNRLYGVPDRFSGSGSGTDFTLKISRVEAEDVGVYYCFQGSHVPWTFGQGTKVEIK ... 93100

Query: kon; subject: VRDN-02027 (antibody, V domains shown) VH: QVQLQESGPGLVKPSETLSLTCTVSGYSITGGYLWNWIRQPPGKGLEWIGYISYDGTNNYKPSLKDRVTISRDTSKNQFSLKLSSVTAADTAVYYCARYGRVFFHYWGQGTLVTVSS VL: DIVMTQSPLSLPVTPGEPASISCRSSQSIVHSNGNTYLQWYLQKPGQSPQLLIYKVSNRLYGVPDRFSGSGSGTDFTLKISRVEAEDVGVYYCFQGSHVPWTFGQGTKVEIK
142000
